- test: chemical genetic growth profiling, strain panel (AID 1159580);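 further: tested at 20 µM; growth read once vehicle control cultures reached saturation at 30 °C; 1 = growth at the plate median or of vehicle wells; lower values mean less growth of the strain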
- measurementSetup: S. cerevisiae deletion strains, growth OD, locus YPL209C, strain IPL1, active compounds read low
In all, about 5,500 compounds went through this assay and about 2,000 (36%) were called active. About 18% were inconclusive and are not listed. Some of the results follow.
Listed below: normalized growth values for each entry.
reportedProperty: normalized growth

                                    compound  assayresult
 0    Cc1ccc(Sc2c(Sc3ccc(C)cc3)c(=O)c2=O)cc1        0.965
 1  COc1cc2c(cc1OC)C(C)N(C(=O)c1sc3ccccc3c1Cl)CC2 (configuration not stated)        0.968
 2             Cc1nnsc1C(=O)NNc1c(Cl)cccc1Cl        0.973
 3  COc1ccc(CN2CSC(=S)N(Cc3ccc(OC)cc3)C2)cc1        0.966
 4       COc1ccc(/C=C2\CSc3ccc(F)cc3C2=O)cc1        0.959
 5    COc1cc(NC(=S)NC(=O)c2ccccc2)c(OC)cc1Cl        0.995
 6             COc1cc(NC(=S)N(C)C)c(OC)cc1Cl        0.988
 7  COc1cc(NC(=S)NNS(=O)(=O)c2ccc(C)cc2)c(OC)cc1Cl        0.972
 8               Cc1nnsc1C(=O)NNc1ccc(F)cc1F        0.943
 9         Cc1ccc(-c2csc(-c3cccnc3)n2)c(C)c1        0.955
10        COc1ccc(NNC(=O)c2sc3ccccc3c2Cl)cc1        0.918
11  O=c1c(Sc2ccc(Cl)cc2)c(Sc2ccc(Cl)cc2)c1=O        0.985

---

- test: chemical genetic growth profiling, strain panel (AID 1159580)
- measurementSetup: S. cerevisiae deletion strains, growth OD, locus YOR270C, strain vph1, active compounds read low
Among all 5,500 compounds or so, about 2,000 (36%) were called active. Another 18% or so got no clear call; they are omitted. This is one part of the list.
Listed below: normalized growth values for each entry.

compound	normalized growth
CC(C)OC(=O)C(C)(C)Oc1ccc(C(=O)c2ccc(Cl)cc2)cc1	0.799
CC(NCCc1ccc(O)cc1)C(O)c1ccc(O)cc1 (stereo unspecified)	1.01
CC1=C(/C=C/C(C)=C/C=C/C(C)=C/C=C/C=C(C)/C=C/C=C(C)/C=C/C2=C(C)C(=O)CCC2(C)C)C(C)(C)CCC1=O	0.871
NC(=O)C(c1ccccc1)(c1ccccc1)C1CCN(CCc2ccc3c(c2)CCO3)C1 (stereo unspecified)	1.02
CCN(CCO)CCCC(C)Nc1ccnc2cc(Cl)ccc12 (stereo unspecified)	1.03
ClC1=C(Cl)C2(Cl)C3C(Cl)C=CC3C1(Cl)C2(Cl)Cl (stereo unspecified)	0.82
CCN(CC)CCCC(C)Nc1ccnc2cc(Cl)ccc12 (stereo unspecified)	1.01
CCOC(=O)CCC(=O)O[C@H]1[C@H](O[C@@H]2[C@@H](C)[C@H](O[C@H]3C[C@@](C)(OC)[C@@H](O)[C@H](C)O3)[C@@H](C)C(=O)O[C@H](CC)[C@@](C)(O)[C@H](O)[C@@H](C)C(=O)[C@H](C)C[C@@]2(C)O)O[C@H](C)C[C@@H]1N(C)C	1.03
Oc1cc(Cl)ccc1Oc1ccc(Cl)cc1Cl	0.0953
COc1cc(NS(=O)(=O)c2ccc(N)cc2)nc(OC)n1	0.965
CN(C)C(=S)SSC(=S)N(C)C	0.0916
Cc1cccc(C)c1OCC(C)N (stereo unspecified)	1.05
CCCCCCNC(=O)n1cc(F)c(=O)[nH]c1=O	0.518
CN[C@@H](C)[C@@H](O)c1ccccc1	1.04
COCCc1ccc(OCC(O)CNC(C)C)cc1 (stereo unspecified)	0.975
CCC(=O)O[C@H]1[C@H](O[C@@H]2[C@@H](C)[C@H](O[C@H]3C[C@@](C)(OC)[C@@H](O)[C@H](C)O3)[C@@H](C)C(=O)O[C@H](CC)[C@@](C)(O)[C@H](O)[C@@H](C)C(=O)[C@H](C)C[C@@]2(C)O)O[C@H](C)C[C@@H]1N(C)C	0.3
CNC(C)[C@H](O)c1ccccc1 (stereo partly specified)	0.952
CC(N)C(=O)OC(C)(C)Cc1ccc(Cl)cc1 (stereo unspecified)	1.09
CC(C[N+](C)(C)C)OC(N)=O (stereo unspecified)	1.05
CC1=C(CC(=O)O)c2cc(F)ccc2/C1=C\c1ccc(S(C)=O)cc1 (stereo unspecified)	1.04
CCN(CC)CCNC(=O)c1cc(Br)c(N)cc1OC	1.01

---

- test: chemical genetic growth profiling, strain panel (AID 1159580)
- measurementSetup: S. cerevisiae deletion strains, growth OD, locus YLR330W, strain CHS5, active compounds read low
About 2,000 (36%) of roughly 5,500 compounds were called active. About 18% were inconclusive and are not listed. This is one part of the list.
Listed below: normalized growth values for each entry.
reportedProperty: normalized growth

compound	assayResult
CO[C@H]1[C@H](O)[C@H](O[C@H]2CC[C@]3(C)C4CC[C@]5(C)C(C6=CC(=O)OC6)CC[C@]5(O)C4CC[C@@H]3C2)O[C@@H](C)[C@@H]1O (stereo partly drawn)	1.02 (inactive)
CC1=C(CC(=O)O)c2cc(F)ccc2/C1=C\c1ccc(S(C)=O)cc1 (stereo not drawn)	1.01 (inactive)
C[C@]12CC(=O)C3C(CC[C@@H]4C[C@H](O)CC[C@]34C)C1CC[C@]2(O)C(=O)CO (stereo partly drawn)	0.994 (inactive)

---

Listed below: normalized growth values for each entry.
- test: chemical genetic growth profiling, strain panel (AID 1159580);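 further: tested at 20 µM; growth read once vehicle control cultures reached saturation at 30 °C; 1 = growth at the plate median or of vehicle wells; lower values mean less growth of the strain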
- measurementSetup: S. cerevisiae deletion strains, growth OD, locus YJL092W, strain hpr5, active compounds read low
Hit rate of the full screen: of about 5,500 compounds, about 2,000 (36%) were called active. About 18% were inconclusive and are not listed. This is one part of the list.

compound	normalized growth
COc1ccc2c(c1)O[C@@H]1COc3cc(OC)c(OC)cc3[C@@H]1C2=O	0.822
NCC1CCC(C(=O)O)CC1 (stereo not given)	0.986
ClC1=C(Cl)C2(Cl)C3C(Cl)C=CC3C1(Cl)C2(Cl)Cl (stereo not given)	0.998
CCCCCCCCCCCCCCCC[N+](C)(C)C	0.0559
COc1cc(/C=C/C(=O)/C=C(O)/C=C/c2ccc(O)c(OC)c2)ccc1O	0.222
COc1cc(O)c(C(=O)/C=C/c2ccc(O)c(OC)c2)c(OC)c1	0.961
COc1cc(O)c(C(=O)/C=C/c2ccc(OC)c(O)c2)c(OC)c1	0.957
COc1cc(O)c(C(=O)/C=C/c2ccccc2)c(OC)c1	0.945
COc1cc2c(cc1OC)[C@@H]1C(=O)c3ccc(O)c(CC=C(C)C)c3O[C@@H]1CO2	1
CO[C@H]1[C@H](O)[C@H](O[C@H]2CC[C@]3(C)C4CC[C@]5(C)C(C6=CC(=O)OC6)CC[C@]5(O)C4CC[C@@H]3C2)O[C@@H](C)[C@@H]1O (stereo not given in full)	1

---

- test: chemical genetic growth profiling, strain panel (AID 1159580);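 further: tested at 20 µM; growth read once vehicle control cultures reached saturation at 30 °C; 1 = growth at the plate median or of vehicle wells; lower values mean less growth of the strain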
- measurementSetup: S. cerevisiae deletion strains, growth OD, locus YOL078W, strain AVO1, active compounds read low
Out of some 5,500 compounds screened, about 2,000 (36%) were called active. About 18% were inconclusive and are not listed. This is one part of the list.
Listed below: normalized growth values for each entry.
reportedProperty: normalized growth

                                   compound  assayresult
0  OC1(C(F)(F)F)CC(C23CC4CC(CC(C4)C2)C3)=NN1 (stereo unspecified)        0.893
1  O=C(Oc1ccc(C(F)(F)F)cc1[N+](=O)[O-])c1cccc(Cl)c1        0.939
2  COc1ccc(CN2CSC(=S)N(Cc3ccc(OC)cc3)C2)cc1        0.967
3  CS(=NC(=O)c1cccc(Cl)c1)c1ccc(OC(=O)c2ccc(Cl)cc2)cc1 (stereo unspecified)        0.959
4  Cc1ccc(OCC2SCCN2C(=O)c2ccc(C(F)(F)F)cc2)c([N+](=O)[O-])c1 (stereo unspecified)         1.01
5    COc1cc(NC(=S)NC(=O)c2ccccc2)c(OC)cc1Cl        0.999

---

- test: chemical genetic growth profiling, strain panel (AID 1159580);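 further: tested at 20 µM; growth read once vehicle control cultures reached saturation at 30 °C; 1 = growth at the plate median or of vehicle wells; lower values mean less growth of the strain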
- measurementSetup: S. cerevisiae deletion strains, growth OD, locus YCL061C, strain MRC1
Hit rate of the full screen: of about 5,500 compounds, about 2,000 (36%) were called active. Roughly 18% stayed inconclusive and do not appear here. Rule as the data show it: active = normalized growth mostly below about 0.91 (no sharp cut-off); inconclusive = no clear call, values can overlap the other calls; inactive = mostly above about 0.92. This is one part of the list.
Classes used: true (1) for active, false (0) for inactive

>>> df
                                   compound  classname
0                  CCCc1cc(=O)c2ccc(O)cc2o1  false (0)
1  COc1ccc2c(c1OC)C(=O)O[C@@H]2[C@H]1c2cc3c(cc2CCN1C)OCO3  false (0)
2  COc1ccc2c(c1OC)C(=O)O[C@H]2[C@H]1c2cc3c(cc2CCN1C)OCO3  false (0)
3           CCOC(=O)c1c(C)c(Cl)c(O)c(Cl)c1O   true (1)
4                 Cc1[nH]c(C)c(Cl)c(=O)c1Cl  false (0)
5  CN1CCc2cc3c(cc2[C@H]1C1OC(=O)c2c1ccc1c2OCO1)OCO3 (stereo partly specified)  false (0)
